# Substrate specificity (%) BTG-2 values compiled below
target: BTG-2 (Streptomyces griseocarneus); construct: Ca2+-independent; made as pre-pro-protein; assay: Substrate specificity: synthetic substrates with hydroxylamine; assay type: biochemical, Streptoverticillium griseocarneum IFO 12776; conditions: Table 4
Residues, ends and D or L forms follow the SMILES beside them. *: point of attachment. Cbz = O=C(OCc1ccccc1)*
// note: answer is a bare numeric in %

Below, each entry is followed by its recorded Substrate specificity (%) BTG-2 result.
INSERT INTO measurements (compound, readout_name, units_of_measure, numeric_result) VALUES
  ('NC(=O)CC[C@H](NC(=O)OCc1ccccc1)C(=O)N[C@@H](CCC(N)=O)C(=O)NCC(=O)O [CBZ--Gln--Gln--Gly] (Cbz-Gln-Gln-Gly-OH)', 'Substrate specificity (%) BTG-2', '%', 39),
  ('NC(=O)CC[C@H](NC(=O)CNC(=O)CNC(=O)OCc1ccccc1)C(=O)NCC(=O)O [CBZ--Gly--Gly--Gln--Gly] (Cbz-GGQG-OH)', 'Substrate specificity (%) BTG-2', '%', 58),
  ('CCOC(=O)CNC(=O)[C@H](CCC(N)=O)NC(=O)OCc1ccccc1 [CBZ--Gln--Gly--OEt] (Cbz-Gln-Gly-OEt)', 'Substrate specificity (%) BTG-2', '%', 44),
  ('NC(=O)CC[C@H](NC(=O)OCc1ccccc1)C(=O)NCC(=O)O [CBZ--Gln--Gly, benzyloxycarbonylglutaminyl glycine] (Cbz-Gln-Gly-OH)', 'Substrate specificity (%) BTG-2', '%', 100);

-- ask Entry NC(=O)CC[C@H](NC(=O)CNC(=O)OCc1ccccc1)C(=O)NCC(=O)NCC(=O)O [CBZ--Gly--Gln--Gly--Gly] (Cbz-GQGG-OH) , system BTG-2 (Streptomyces griseocarneus): what Substrate specificity (%) BTG-2 was measured?
-- reply 12

---

molecular target: BTG-2 (Streptomyces griseocarneus, UniProt A0ABX7RSJ1); construct: Ca2+-independent; made as pre-pro-protein; type: biochemical, Streptoverticillium griseocarneum IFO 12776; settings: metal ion 1 mM; None = 100; 30 min
Readout Name: BTG-2 (%) activity with metal ion
The reply should be a number in %, with the unit left off.

-- ask Sample [Cl][Ni][Cl] — what was its BTG-2 (%) activity with metal ion?
-- reply 100

---

system: BTGase; assay: Substrate specificity, statement on all BTGases; assay type: biochemical, Streptoverticillium; details: substrate 5 mM, with hydroxylamine
Residues, ends and D or L forms follow the SMILES beside them. *: point of attachment. Cbz = O=C(OCc1ccccc1)*
Readout Name: Reactivity of synthetic substrate with the BTGases (in words)

INSERT INTO assay_data (compound, result) VALUES
  ('NC(=O)CC[C@H](NC(=O)OCc1ccccc1)C(=O)O [CBZ--Gln, benzyloxycarbonyl glutamine]', 'No BTGase reacts'),
  ('NCC(=O)N[C@@H](CCC(N)=O)C(=O)NCC(=O)O [Gly--Gln--Gly, glycylglutaminyl glycine] (H-Gly-Gln-Gly-OH)', 'No BTGase reacts'),
  ('NC(=O)C[C@H](NC(=O)OCc1ccccc1)C(=O)NCC(=O)O [CBZ--Asn--Gly, benzyloxycarbonylasparaginyl glycine] (Cbz-Asn-Gly-OH)', 'No BTGase reacts');

---

target: BTG-3 (Streptomyces cinnamoneus); construct: Ca2+-independent; made as pre-pro-protein; assay: Substrate specificity: synthetic substrates with hydroxylamine; format: biochemical; conditions: substrate 5 mM, with hydroxylamine
Residues, ends and D or L forms follow the SMILES beside them. *: point of attachment. Cbz = O=C(OCc1ccccc1)*
Readout Name: Reactivity of substrate with BTG-3 (relative, Table 1)
API note: the answer field is a bare number with no unit suffix.

Would you please look over these solved cases?
INSERT INTO assay_data (compound, assay_target, numeric_result) VALUES
  ('NC(=O)CC[C@H](NC(=O)OCc1ccccc1)C(=O)O', 'BTG-3 (Streptomyces cinnamoneus)', 0),
  ('CCOC(=O)CNC(=O)[C@H](CCC(N)=O)NC(=O)OCc1ccccc1 [CBZ--Gln--Gly--OEt] (Cbz-Gln-Gly-OEt)', 'BTG-3 (Streptomyces cinnamoneus)', 42);

We now examine a further compound.
-- ask Data request, read-out Reactivity of substrate with BTG-3 (relative, Table 1), for NC(=O)C[C@H](NC(=O)OCc1ccccc1)C(=O)NCC(=O)O [CBZ--Asn--Gly, benzyloxycarbonylasparaginyl glycine] (Cbz-Asn-Gly-OH)
-- reply 0

---

target: BTG-1 (Streptomyces mobaraensis, UniProt P81453); construct: BTGase is dissolved in the culture solution and can be harvested from the culture filtrate; endogenous in cells; host or cells: Streptoverticillium mobaraense IFO 13819 (natural producer; purified from culture filtrate); assay: Substrate specificity: synthetic substrates with hydroxylamine; assay type: biochemical, Streptoverticillium mobaraense IFO 13819; settings: substrate 5 mM, with hydroxylamine
Sequence (P81453 77-407): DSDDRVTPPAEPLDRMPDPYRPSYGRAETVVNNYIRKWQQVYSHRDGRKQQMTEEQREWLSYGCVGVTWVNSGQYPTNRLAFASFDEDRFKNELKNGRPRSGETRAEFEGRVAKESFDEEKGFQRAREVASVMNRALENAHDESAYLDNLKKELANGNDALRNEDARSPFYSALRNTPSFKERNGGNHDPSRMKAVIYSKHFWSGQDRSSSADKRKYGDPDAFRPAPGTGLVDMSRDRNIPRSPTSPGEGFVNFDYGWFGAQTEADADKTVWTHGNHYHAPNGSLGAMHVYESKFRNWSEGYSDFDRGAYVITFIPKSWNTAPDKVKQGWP
Residues, ends and D or L forms follow the SMILES beside them. *: point of attachment. Cbz = O=C(OCc1ccccc1)*
Rule: True for Reactivity of substrate with BTG-1 (relative, Table 1) not less than 20, False for anything less.

Below, 7 compounds whose answers are already recorded.
INSERT INTO results (compound, assigned_label) VALUES
  ('NC(=O)CC[C@H](NC(=O)OCc1ccccc1)C(=O)N[C@@H](CCC(N)=O)C(=O)NCC(=O)O [CBZ--Gln--Gln--Gly] (Cbz-Gln-Gln-Gly-OH)', 'True'),
  ('NC(=O)CC[C@H](NC(=O)CNC(=O)OCc1ccccc1)C(=O)NCC(=O)NCC(=O)O [CBZ--Gly--Gln--Gly--Gly] (Cbz-GQGG-OH)', 'False'),
  ('CCOC(=O)CNC(=O)[C@H](CCC(N)=O)NC(=O)OCc1ccccc1 [CBZ--Gln--Gly--OEt] (Cbz-Gln-Gly-OEt)', 'True'),
  ('NC(=O)CC[C@H](NC(=O)CNC(=O)CNC(=O)OCc1ccccc1)C(=O)NCC(=O)O [CBZ--Gly--Gly--Gln--Gly] (Cbz-GGQG-OH)', 'True'),
  ('NC(=O)C[C@H](NC(=O)OCc1ccccc1)C(=O)NCC(=O)O [CBZ--Asn--Gly, benzyloxycarbonylasparaginyl glycine] (Cbz-Asn-Gly-OH)', 'False'),
  ('NC(=O)CC[C@H](NC(=O)OCc1ccccc1)C(=O)O', 'False'),
  ('NCC(=O)N[C@@H](CCC(N)=O)C(=O)NCC(=O)O [Gly--Gln--Gly, glycylglutaminyl glycine] (H-Gly-Gln-Gly-OH)', 'False');

Attention now shifts to the item below.
-- ask Could you verify whether the entry NC(=O)CC[C@H](NC(=O)OCc1ccccc1)C(=O)NCC(=O)O [CBZ--Gln--Gly, benzyloxycarbonylglutaminyl glycine] (Cbz-Gln-Gly-OH) shows Reactivity of substrate with BTG-1 (relative, Table 1) of no less than 20?
-- reply True

---

Reported values of Substrate specificity (%) BTG-3 for individual entries
molecular target: BTG-3 (Streptomyces cinnamoneus, UniProt Q8GR90); construct: Ca2+-independent; made as pre-pro-protein; assay: Substrate specificity: synthetic substrates with hydroxylamine; assay type: biochemical; settings: Table 4
Sequence (Q8GR90 86-416): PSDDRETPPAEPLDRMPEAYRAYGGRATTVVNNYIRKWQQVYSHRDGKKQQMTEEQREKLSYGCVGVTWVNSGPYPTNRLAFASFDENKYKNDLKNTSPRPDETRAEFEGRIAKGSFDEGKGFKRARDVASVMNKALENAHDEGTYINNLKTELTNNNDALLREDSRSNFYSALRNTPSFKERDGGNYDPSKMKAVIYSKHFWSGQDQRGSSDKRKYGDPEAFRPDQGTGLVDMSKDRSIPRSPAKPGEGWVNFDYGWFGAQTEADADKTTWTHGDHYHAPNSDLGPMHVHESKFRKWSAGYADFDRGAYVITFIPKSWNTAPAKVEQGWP
Residues, ends and D or L forms follow the SMILES beside them. *: point of attachment. Cbz = O=C(OCc1ccccc1)*
Give a bare numeral; the unit % is implied.

Worked set:
INSERT INTO measurements (compound, assay_target, numeric_result) VALUES
  ('CCOC(=O)CNC(=O)[C@H](CCC(N)=O)NC(=O)OCc1ccccc1 [CBZ--Gln--Gly--OEt] (Cbz-Gln-Gly-OEt)', 'BTG-3 (Streptomyces cinnamoneus, UniProt Q8GR90)', 42),
  ('NC(=O)CC[C@H](NC(=O)CNC(=O)CNC(=O)OCc1ccccc1)C(=O)NCC(=O)O [CBZ--Gly--Gly--Gln--Gly] (Cbz-GGQG-OH)', 'BTG-3 (Streptomyces cinnamoneus, UniProt Q8GR90)', 60),
  ('NC(=O)CC[C@H](NC(=O)OCc1ccccc1)C(=O)NCC(=O)O [CBZ--Gln--Gly, benzyloxycarbonylglutaminyl glycine] (Cbz-Gln-Gly-OH)', 'BTG-3 (Streptomyces cinnamoneus, UniProt Q8GR90)', 100),
  ('NC(=O)CC[C@H](NC(=O)OCc1ccccc1)C(=O)N[C@@H](CCC(N)=O)C(=O)NCC(=O)O [CBZ--Gln--Gln--Gly] (Cbz-Gln-Gln-Gly-OH)', 'BTG-3 (Streptomyces cinnamoneus, UniProt Q8GR90)', 35);

-- ask What value of Substrate specificity (%) BTG-3 has been reported for the following compound? NC(=O)CC[C@H](NC(=O)CNC(=O)OCc1ccccc1)C(=O)NCC(=O)NCC(=O)O [CBZ--Gly--Gln--Gly--Gly] (Cbz-GQGG-OH)
-- reply 11

---

biological target: MTGase (transglutaminase of guinea pig liver) (UniProt P08587); construct: from tissue; host or cells: guinea pig liver; assay: Substrate specificity: synthetic substrates; format: biochemical; conditions: Table 4
Sequence (P08587 whole entry): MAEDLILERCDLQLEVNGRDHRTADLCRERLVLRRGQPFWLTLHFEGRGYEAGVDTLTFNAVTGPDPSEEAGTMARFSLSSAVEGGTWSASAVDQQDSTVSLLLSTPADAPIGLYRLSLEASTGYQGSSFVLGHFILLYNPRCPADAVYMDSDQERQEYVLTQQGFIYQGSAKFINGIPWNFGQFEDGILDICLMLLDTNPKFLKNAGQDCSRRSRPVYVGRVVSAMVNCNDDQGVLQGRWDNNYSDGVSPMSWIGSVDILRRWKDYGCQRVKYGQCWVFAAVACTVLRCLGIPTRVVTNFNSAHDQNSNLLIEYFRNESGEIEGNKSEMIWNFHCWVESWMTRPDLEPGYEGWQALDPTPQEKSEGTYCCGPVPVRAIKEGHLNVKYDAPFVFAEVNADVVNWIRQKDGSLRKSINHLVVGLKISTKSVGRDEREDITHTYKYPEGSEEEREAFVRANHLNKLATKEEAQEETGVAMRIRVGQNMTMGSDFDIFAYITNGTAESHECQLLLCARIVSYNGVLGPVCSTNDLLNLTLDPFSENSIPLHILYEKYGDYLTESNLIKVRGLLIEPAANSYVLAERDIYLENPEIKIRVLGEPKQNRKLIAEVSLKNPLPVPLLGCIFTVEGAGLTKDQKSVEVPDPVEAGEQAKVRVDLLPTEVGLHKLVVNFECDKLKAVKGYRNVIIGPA
Residues, ends and D or L forms follow the SMILES beside them. *: point of attachment. Cbz = O=C(OCc1ccccc1)*
Readout Name: Substrate specificity (%) MTGase
Please state the figure in %; there is no need to write the unit.

Sample answers from the record:
INSERT INTO assay_data (molecule, readout_name, numeric_result) VALUES
  ('NC(=O)CC[C@H](NC(=O)OCc1ccccc1)C(=O)NCC(=O)O [CBZ--Gln--Gly, benzyloxycarbonylglutaminyl glycine] (Cbz-Gln-Gly-OH)', 'Substrate specificity (%) MTGase', 100),
  ('CCOC(=O)CNC(=O)[C@H](CCC(N)=O)NC(=O)OCc1ccccc1 [CBZ--Gln--Gly--OEt] (Cbz-Gln-Gly-OEt)', 'Substrate specificity (%) MTGase', 122),
  ('NC(=O)CC[C@H](NC(=O)OCc1ccccc1)C(=O)N[C@@H](CCC(N)=O)C(=O)NCC(=O)O [CBZ--Gln--Gln--Gly] (Cbz-Gln-Gln-Gly-OH)', 'Substrate specificity (%) MTGase', 288),
  ('NC(=O)CC[C@H](NC(=O)CNC(=O)OCc1ccccc1)C(=O)NCC(=O)NCC(=O)O [CBZ--Gly--Gln--Gly--Gly] (Cbz-GQGG-OH)', 'Substrate specificity (%) MTGase', 126);

Lab note: next molecule to report on.
-- ask // map NC(=O)CC[C@H](NC(=O)CNC(=O)CNC(=O)OCc1ccccc1)C(=O)NCC(=O)O [CBZ--Gly--Gly--Gln--Gly] (Cbz-GGQG-OH) to recorded Substrate specificity (%) MTGase (system: MTGase (transglutaminase of guinea pig liver) (UniProt P08587))
-- reply 27
